src = PubChem BioAssay (NCI)

# assay notes: NCI Yeast Anticancer Drug Screen. Data for the rad18 strain (AID 177)
# test context: S. cerevisiae rad18 mutant growth inhibition; at 3.7 µM
About 79,000 compounds went through this panel and 15% of them were active in at least one assay; those are over-represented in the sample as a whole. Active and inactive are the calls of the source. Cut-off read from the data, not from the text of the source: active = growth inhibition above about 70%; inactive = the rest.
Labels: True (active), False (inactive)

1. CC(C)=NOC(=O)Nc1ccc(Cl)cc1 ... False
2. COc1nc2c(c(=O)n1C)N=C(c1ccccc1)[C@H](C(CC(=O)c1ccccc1)c1ccccc1)C(c1ccccc1)N2 (stereo partly specified) ... False
3. Cc1csc(=S)n1OC(=O)NC1CCCCC1 ... True
4. Cc1cccc[n+]1C1CCc2c(ccc3ccccc23)C1=O (stereo unspecified) ... False
5. c1ccc2[nH]c(-c3cscn3)nc2c1 ... False
6. O=C(/C=C/c1cc(Cl)cc(Cl)c1O)c1cccc(O)c1 ... False

###

# assay notes: NCI Yeast Anticancer Drug Screen. Data for the wt2 strain (AID 169);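 note: 0% = growth of vehicle-treated yeast cultures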
# test context: S. cerevisiae wt2 strain growth inhibition; at 1.2 µM; hits give high values
About 79,000 compounds went through this panel and 15% of them were active in at least one assay; those are over-represented in the sample as a whole.
quantity: growth inhibition (%)

1. CCOC(=O)C1N=[N+](c2ccccc2)C(=O)/C1=C\n1c(=S)[nH]c2ccc([N+](=O)[O-])cc21 (stereo not given) ... 0
2. Cc1cc2cc3cc(C)c(N)cc3nc2cc1N ... -7
3. NC1CCCCC1N.Nc1c(N=Nc2ccc(-c3ccc(N=Nc4cc(S(=O)(=O)[O-])c5ccccc5c4N)cc3)cc2)cc(S(=O)(=O)[O-])c2ccccc12.[OH3+].[OH3+].[Pt+4] ... -1
4. COc1oc(C(=O)NC2CCCCC2)c(-c2ccc(Cl)cc2)c1S(=O)(=O)c1ccccc1 ... -1
5. Cc1cccc(/C=N/NC(=S)N2CCCC2)n1 ... -6

###

Collected growth inhibition values appear next to each entry.
# assay notes: NCI Yeast Anticancer Drug Screen. Data for the wt2 strain (AID 169);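 note: 0% = growth of vehicle-treated yeast cultures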
# test context: S. cerevisiae wt2 strain growth inhibition; at 11.0 µM; hits give high values
This is part of a sample that, as a whole, favours compounds with a hit. Of some 79,000 tested, about 15% had one in any assay.
quantity: growth inhibition (%)

1) CCOC(=O)c1[nH]cc(C)c1-c1cccn1-c1ccc(Cl)cc1[N+](=O)[O-] ... -17
2) COC(=O)CC1CCc2c(ccc3ccccc23)C1(C)C(=O)OC (stereo not given) ... -1
3) COc1ccc2c(c1)n([O-])c1ccccc1[n+]2=O ... 11
4) Cc1cc(C)nc(NS(=O)(=O)c2ccc(Nc3c4ccccc4nc4c(C(=O)NCCO)cccc34)cc2)n1 ... -2
5) CCCOC(=O)C(F)C(Br)C(=O)OCCC (stereo not given) ... 98
6) Cc1ccc(Cl)cc1NC(=O)OCCN(C)C(=O)Nc1cc(Cl)ccc1C ... -23
7) COC(=O)Oc1cc(Cl)c(Cl)cc1Cl ... -2
8) C[C](C)(C)[Ge]([O][Ge]([c]1ccccc1)[c]1ccccc1)([O][Ge]([c]1ccccc1)[c]1ccccc1)[C](C)(C)C ... 46
9) c1ccc(Cc2cc(-c3ccccc3)n[nH]2)cc1 ... -7
10) CC[N+]1(C)CCC(O)(c2ccc(OC)cc2)C(C(=O)c2ccc(OC)cc2)C1 (stereo not given) ... -14
11) CC(O)=NC(Cc1ccc2ccccc2c1)C(O)=NC(Cc1ccc(Cl)cc1)C(O)=NC(Cc1c[nH]c2ccccc12)C(O)=NC(CO)C(O)=NC(Cc1ccc(O)cc1)C(O)=NC(CCCN=C(N)N)C(O)=NC(CC(C)C)C(O)=NC(CCCN=C(N)N)C(=O)N1CCCC1C(O)=NC(C)C(=N)O (stereo not given) ... -2
12) CN(C)CCNc1ccc2ncnc3c2c1C(=O)c1ccccc1-3 ... 20
13) O=[N+]([O-])c1ccc2c(c1)/C(=N/N=C1c3ccccc3Cc3ccccc31)c1cc([N+](=O)[O-])cc([N+](=O)[O-])c1-2 ... 98
14) N=C1N=Nc2nc(C3(c4nc5n(c4O)C(=N)N=N5)Cc4ccccc4C3=O)c(O)n21 (stereo not given) ... 11
15) COC(=O)CCC(NC(=S)N/N=C(\C)c1ccccn1)C(=O)OC (stereo not given) ... -3
16) COc1ccc(C(=O)C(CN(C)C)CN(C)C)cc1 ... 4
17) O=C(NNc1ccccc1)c1ccc(Cl)c(Cl)c1 ... 2
18) CCCCNC1CCC2(SCCS2)c2[nH]c3ccccc3c21 (stereo not given) ... 3
19) CN(C)c1ccc(N=Nc2ccncc2)cc1 ... 22
20) OC(/C=C/c1ccccc1)(Cc1cc(-c2ccccc2)n[nH]1)c1ccccc1 (stereo not given) ... -15

###

# assay notes: NCI Yeast Anticancer Drug Screen. Data for the rad14 strain (AID 159);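 note: 0% = growth of vehicle-treated control cultures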
# test context: S. cerevisiae rad14 strain growth inhibition; at 33.0 µM; hits give high values
About 79,000 compounds went through this panel and 15% of them were active in at least one assay; those are over-represented in the sample as a whole.
Collected growth inhibition values appear next to each entry.
quantity: growth inhibition (%)

1. Cc1c(C(C)C)cc(OCCO)cc1C(C)C ... -4
2. N#CNC(N)=Nc1cc2ccccc2c2ccccc12 ... 95
3. CCCCCCSc1ncnc2[nH]ncc12 ... 5
4. CNC(=O)OCc1c(COC(=O)NC)c2n(c1C)-c1ccc(OC)cc1CCC2 ... 98
5. Oc1cccc2cc(Cl)cnc12 ... 97
6. O=C1NC(SSC2=NNC3(C(=O)N2)c2ccccc2-c2ccccc23)=NNC12c1ccccc1-c1ccccc12 ... 2

###

# assay notes: NCI Yeast Anticancer Drug Screen. Data for the mec2-1 strain (AID 157)
# test context: S. cerevisiae mec2-1 strain, at 100.0 µM, hits give high values
# Method: Growth inhibition of yeast strains with defined genetic alterations is measured as a screen for potential anti-cancer activity. Selected strains with alterations in DNA damage repair or cell cycle control were exposed to compounds and growth inhibition was measured relative to vehicle treated controls. The strain used in this assay is mec2-1
The panel holds about 79,000 compounds, 15% with a hit somewhere; the sample as a whole holds those more often.
quantity: growth inhibition (%)

1. COc1cc(O)c2c(c1O)C(=O)c1cc(C)ncc1C2=O ... 23
2. N#CC1=C(N)N(/N=C/c2ccccc2)C(c2ccccc2)C1(C#N)C#N (centres undefined) ... 87
3. O=C(O)CCCC1CCCc2c1ccc1ccccc21 (centres undefined) ... 99
4. C=C(Cl)COC(=O)Nc1cccc(Cl)c1 ... 91
5. C[C@@](O)(/C=C/[C@H]1CC=CC(=O)O1)[C@@H](C[C@@H](O)\C=C/C=C\C=C\CO)OP(=O)(O)O ... 84
6. Cc1c2ccnc(C(=O)NCCN(C)C)c2cc2c3cc(O)ccc3n(C)c12 ... 39
7. COC(C(O)CO)C(O)C(O)C(=O)NNc1ccccc1 (centres undefined) ... 94
8. Cc1cc(S(=O)(=O)Nc2nnc3cnc4ccccc4n23)c(S)cc1Cl ... 54
9. CCC(C)OC(=O)Nc1ccc(C)c(NC(=O)OC(C)CC)c1 (centres undefined) ... 90
10. CCCCCCN(CCCCCC)CC(O)c1ccnc2ccc(OC)cc12 (centres undefined) ... 67
11. CCCCN(CCCC)C(=O)/C=C/c1ccccc1 ... 79
12. CN(C)c1ccc(N=Nc2ccncc2)cc1 ... 67
13. Cc1ccccc1N=C(NO)c1ccccc1 ... 97
14. CN(C)C=NC1CCC(C(C)(C)C)CC1 (centres undefined) ... 99
15. COc1cc2ccnc(-c3c4ccccc4c(N)c4c(OC)c(OC)ccc34)c2cc1OC ... 46
16. Oc1ccc2c(c1)C(O)CCCC2 (centres undefined) ... 46
17. CN1C(=O)c2ccc3ccccc3c2C1=O ... 26
18. Oc1ccc(-c2nc(-c3ccc(F)cc3)c(-c3ccc4ccccc4n3)[nH]2)cc1 ... 96
19. CN(C)CCNC(=O)c1cccc2c1Oc1c(cccc1[N+](=O)[O-])O2 ... 56
20. COC1CCC(O)C(/C=C/[N+](=O)[O-])C1 (centres undefined) ... 99
21. CC(C)(C)CC(C)(C)c1cc(O)c(O)c(CN2CCCCC2)c1 ... 24
22. Cc1cc2cc3cc(C)c(N)cc3nc2cc1N ... 97
23. C/C(=N\Nc1ccc([N+](=O)[O-])cc1[N+](=O)[O-])c1sc(-n2nc(-c3ccccc3)cc2-c2ccccc2)nc1C ... 34
24. O=C(O)c1ccccc1/C=N/N=C1c2ccccc2-c2ccccc21 ... 11

###

# assay notes: NCI Yeast Anticancer Drug Screen. Data for the mec2-1 strain (AID 157)
# test context: S. cerevisiae mec2-1 strain, at 50.0 µM
This is part of a sample that, as a whole, favours compounds with a hit. Of some 79,000 tested, about 15% had one in any assay. The source made the active and inactive calls. No stated cut-off is given here; in the data, active means growth inhibition above about 70%; inactive means the rest.
Labels: active, inactive

1) CC(NCCN(C)C)C1CCC2C3CCc4cc(O)ccc4C3CCC12C (stereo unspecified) ... inactive
2) O=C1NC(=O)c2ccc([N+](=O)[O-])c3cccc1c23 ... inactive
3) CN1CCN(C(=O)/C=C/C(=O)c2ccccc2)CC1 ... active
4) CCCCc1nnc(NS(=O)(=O)c2ccc(C)cc2)s1 ... inactive
5) CC12C(=O)OC(=O)C(c3ccccc31)c1ccccc12 ... active
6) Cc1nc(-c2cc3cc([N+](=O)[O-])ccc3oc2=O)cs1 ... active
7) O/N=C\c1c(O)ccc2ccccc12 ... inactive
8) CN(C)CCOC1(Cc2ccc(Cl)cc2Cl)CCC(C(C)(C)C)CC1 (stereo unspecified) ... active
9) CCCCN(CCCC)C(=O)/C=C/c1ccccc1 ... active
10) Cc1cc(N(CCOS(C)(=O)=O)CCOS(C)(=O)=O)ccc1C=Nc1ccc(-c2nc(Cc3ccccc3)sc2C)cc1 ... inactive
11) CCOC(=O)CC1(C(=O)OCC)c2[nH]c3ccccc3c2CCN1Cc1ccccc1 (stereo unspecified) ... inactive
